All figures here come from ChEMBL document CHEMBL1201862.

# Test system: SK-OV-3
# TEST NAME: NCI tumour cell line growth inhibition, 48 h
Calls of active or inactive are those of the source. Cut-off read from the data, not from the text of the source: active = GI50 up to about 1.1 µM and inactive = higher.
Listed next: entries and their corresponding GI50.

| COMPOUND | GI50 |
| --- | --- |
| COc1c(OC(C)C)c(OC(C)C)c2oc(=O)n3c2c1C(c1ccccc1-n1c(C)ccc1C)C=C3 (stereo not given) | > 100 µM (inactive) |
| O=c1[nH]c2ccc(CC(=S)N3CCCCC3)cc2s1 | > 100 µM (inactive) |
| O=C1NC(=S)NC(=O)C1=CC1CC1 | > 100 µM (inactive) |
| CN(CCCNC(=O)c1nn(-c2ccc(Cl)cc2Cl)c2c1Cc1ccccc1-2)CCCNC(=O)c1nn(-c2ccc(Cl)cc2Cl)c2c1Cc1ccccc1-2 | 1.78 µM (inactive) |
| COc1ccccc1OCC(COC(=O)Nc1ccc(C)cc1)OC(=O)Nc1ccc(C)cc1 (stereo not given) | 24.7 µM (inactive) |

----------
HCT-15 data, read-out GI50
REPORTED PROPERTY: GI50 (µM)

| MOLECULE | MODIFIER SIGN | ENDPOINT VALUE |
| --- | --- | --- |
| O=C(N/N=C(/c1nc2ccc([N+](=O)[O-])cc2[nH]c1=O)C(O)c1ccc([N+](=O)[O-])cc1)c1ccncc1 (stereo not drawn) | = | 23.1 |
| CCc1cc2c(c3c1CCCC3=O)CC1(C2)Cc2cc(CC)c3c(c2C1)C(=O)CCC3 | > | 100 |
| Cc1ccc(C(=N)c2ccccc2Cc2cccc3ccccc23)c2ccccc12 | = | 40.6 |
| CN(CCNC(=O)c1cn(C)c2c1ccc1cc(Cl)ccc12)CCNC(=O)c1cn(C)c2c1ccc1cc(Cl)ccc12 | = | 1.78 |
| Nc1nc[n+](Cc2ccccc2)c2ncn(Cc3ccccc3)c12 | > | 100 |
| O=C1c2c(O)cccc2C(C(=O)CCCC(=O)C2c3cccc(O)c3C(=O)c3c(O)cccc32)c2cccc(O)c21 | = | 0.259 |
| CCC(=O)C1(c2ccccc2)CCN(C)CC1 | > | 100 |
| CC(C)(C)C1CCC(CI)(N=[N+]=[N-])CC1 (stereo not drawn) | > | 100 |
| C=C(Br)C(C)(Br)CCC(Br)C(C)(C)Br (stereo not drawn) | = | 34.8 |
| COc1ccc(-c2cc(-c3ccc(Cl)cc3)n(C3OC(CO)C(O)C(O)C3O)c(=S)c2C#N)cc1 (stereo not drawn) | = | 38.5 |
| C=CC[C@]1(C2=NC(C)(C)CO2)c2ccccc2-c2ccccc2[C@H]1C(C)=O | = | 4.82 |
| NC(CSC1c2ccccc2-c2ccccc21)C(=O)O (stereo not drawn) | > | 100 |
| CC(C)(C)c1cc(COc2cc(COc3ccc(-c4c5c(nc6c4CCc4ccc(-c7c8ccccc8nc8ccccc78)cc4-6)-c4cc(-c6c7ccccc7nc7ccccc67)ccc4CC5)cc3)cc(OCc3cc(C(C)(C)C)cc(C(C)(C)C)c3)c2)cc(C(C)(C)C)c1 | > | 100 |
| C=CCN(C(=O)CNC(=O)C(F)(F)F)c1cc(OCc2ccccc2)c2c(c1)c(C)cn2S(=O)(=O)c1ccccc1 | > | 100 |
| O=C(Nc1ccc(Cl)cc1)c1cc(S(=O)(=O)NC2=Nc3ccc(Cl)cc3C(c3ccccc3)N2)c(SSc2cc(Cl)c(C(=O)Nc3ccc(Cl)cc3)cc2S(=O)(=O)NC2=Nc3ccc(Cl)cc3C(c3ccccc3)N2)cc1Cl (stereo not drawn) | > | 100 |
| CN(C)C(=O)C(F)(F)C(c1ccccc1)C1C(=O)N(C)C(=O)N(C)C1=O (stereo not drawn) | > | 100 |
| COCC(=O)OC1CCn2c1nc1c2C(=O)C(C)=C(NC(C)=O)C1=N (stereo not drawn) | = | 8.13 |
| COc1ccc(/C=C/C(=O)c2sc(-n3nc(-c4ccccc4)cc3-c3ccccc3)nc2C)cc1OC | = | 32.4 |
| O=C1CSC(c2cccc(Cl)c2)N1c1ccc(-n2c(-c3ccccc3)nc3ccccc3c2=O)cc1 (stereo not drawn) | = | 15.8 |
| CC(=O)c1cc2ccccc2oc1=O | > | 100 |
| O=C(Nc1cccc([N+](=O)[O-])c1)/C(=N\NC(=O)c1ccncc1)c1nc2ccc([N+](=O)[O-])cc2nc1O | = | 35 |
| Cc1cc2nc3c(N)nn(CCCN(C)C)c3nc2cc1C | > | 100 |
| O=C1/C(=C/c2ccccc2)CCCC1CN1CCCCC1 (stereo not drawn) | = | 2.04 |
| COC(=O)/C(=N\N)C(C(=O)C(=O)Nc1nnc(S)[nH]1)c1nc2ccc([N+](=O)[O-])cc2nc1O (stereo not drawn) | > | 100 |
| O=[N+]([O-])c1ccc(C2CC(c3ccccc3Cl)=Nc3ccccc3S2)cc1 (stereo not drawn) | = | 5.35 |
| Cc1cc(C)c2c(c1)C/C(=C\c1ccccc1C(=O)O)C2=O | = | 47.4 |
| CCC1C(NC(=O)OC)C(=O)N1[C@@H](C)c1ccccc1 (stereo partly drawn) | > | 100 |
| OC1(c2ccc3ccccc3c2)c2ccc3ccccc3c2C2=NCCN21 (stereo not drawn) | > | 100 |
| COc1ccc2c(c1)CCC(OS(=O)(=O)CC13CCC(CC1=O)C3(C)C)C2=O (stereo not drawn) | = | 26.7 |
| CSc1nc2c3ccccc3ccn2c1C(=O)N/N=C/c1ccccc1 | > | 100 |
| Cc1nc2ccccc2n1Cc1ccc(NC(=S)NC2CCCCC2)cc1 | = | 8.95 |
| COC1C(O)C(C)OC(OC2C(Oc3cccc4c(O)c5c(=O)oc6ccc(C)c7c(=O)oc(c34)c5c67)OC(C)C(O)C2O)C1O (stereo not drawn) | = | 3.03 |
| C=C1c2nc3ccccc3n2C=C(c2ccc(C)cc2)N1c1ccccc1 | = | 1.47 |
| C[C@H]1OC(=O)[C@@H]2N=NN(Cc3ccccc3)[C@H]12 | > | 100 |
| C=CC1(CCC(Br)C(C)(C)Cl)CO1 (stereo not drawn) | > | 10 |
| N#CC(C#N)=C1c2ccccc2C(=NN)c2ccccc21 | > | 100 |
| NC(=O)N/N=C\c1ccccc1OCc1cccc(COc2ccccc2/C=N\NC(N)=O)n1 | = | 64.1 |
| C=C1CC2(CCOc3ccc(Cl)cc32)OC1=O (stereo not drawn) | = | 0.935 |

----------
# System: RPMI-8226
# TEST NAME: NCI tumour cell line growth inhibition, 48 h
Active and inactive are the calls of the source. No stated cut-off is given here; in the data, active = GI50 up to about 1.1 µM and inactive = higher.

| COMPOUND | GI50 |
| --- | --- |
| C=C1c2nc3ccccc3n2C=C(c2ccc(C)cc2)N1c1ccccc1 | 2.3 µM (inactive) |
| Cc1cc(C)c2c(c1)C/C(=C\c1ccccc1C(=O)O)C2=O | > 100 µM (inactive) |
| COc1ccc(/C=C/C(=O)Oc2ccc(/C=C3\CCCCC3=O)cc2)cc1 | 3.61 µM (inactive) |
| Clc1cc(Cl)cc(/N=C/C=C/Nc2cc(Cl)cc(Cl)c2)c1 | 24.5 µM (inactive) |
| Cc1ccc(/N=N/c2c(C)nn(C(=O)CC(=O)Nc3ccc(Cl)cc3)c2C)cc1C | > 100 µM (inactive) |
| CC1(C)CC(=O)C2=C(C1)OC1=C(CC(C)(C)CC1=O)C2c1ccccc1Cl (stereo not given) | > 100 µM (inactive) |
| COc1c(OC(C)C)c(OC(C)C)c2oc(=O)n3c2c1C(c1ccccc1-n1c(C)ccc1C)C=C3 (stereo not given) | 64.6 µM (inactive) |
| COc1ccc2c(c1)C1C(CO2)C(c2ccccc2)=NN1c1ccccc1 (stereo not given) | 48.1 µM (inactive) |
| C[N+](C)(C)CC(=O)N/N=C(/Cc1nc2ccc(Cl)cc2nc1O)C1=NS(=O)(=O)c2cc(S(N)(=O)=O)c(Cl)cc2N1 | > 100 µM (inactive) |
| COC(=O)c1c(CC(Cc2ccc3c(c2)CCCC3)C(=O)O)ccc2c1CCCC2 (stereo not given) | 27.6 µM (inactive) |

----------
# System: HOP-92
# TEST NAME: NCI tumour cell line growth inhibition, 48 h
Activity calls are given as the source filed them. Rule as the data show it: active = GI50 up to about 1.1 µM and inactive = higher. Where a SMILES comes first, the peptide text is derived from it. Bridges are numbered along the chain shown (N, C = ends). [ ]: non-standard residue; d: D form. The star is where a group is joined. ξ: configuration not given here. PhAc = O=C(Cc1ccccc1)*; ξP = O=C(O)C1CCCN1

| COMPOUND | TESTED SYSTEM | GI50 |
| --- | --- | --- |
| Cc1ccc(NC(=O)C(=O)C(C(=O)/C=C/c2ccccc2)C2OC(=O)c3ccccc32)c(C)c1 (stereo unspecified) | HOP-92 | > 100 µM (inactive) |
| CC(CC(N)C(=O)O)C(=O)O (stereo unspecified) | HOP-92 | > 100 µM (inactive) |
| O=c1c2ccccc2oc2c1ccc1ncccc12 | HOP-92 | 5.53 µM (inactive) |
| O=C1c2c(O)cccc2Cc2cc(CO)cc(O)c21 | HOP-92 | 1.61 µM (inactive) |
| O=C1CSC(c2cccc(Cl)c2)N1c1ccc(-n2c(-c3ccccc3)nc3ccccc3c2=O)cc1 (stereo unspecified) | HOP-92 | 2.69 µM (inactive) |
| O=C(O)CC(Nc1ccccc1)C(=O)O (stereo unspecified) | HOP-92 | > 100 µM (inactive) |
| CCOc1ccc(/C=C(\Cl)c2ccc(OC)c(OC)c2)cc1 | HOP-92 | 55.3 µM (inactive) |
| O=P(NCCCO)(OCc1ccccc1)N(CCCl)CCCl (stereo unspecified) | HOP-92 | > 100 µM (inactive) |
| O=C(Cc1ccccc1)N[C@@H]1COC(=O)C2CCCN2C(=O)[C@@H]2CCCN2C1=O (stereo partly specified) (PhAc-[dS]-Pro-[ξP]; ester 1-C) | HOP-92 | > 100 µM (inactive) |
| c1ccc(CN(Cn2cccn2)Cn2cccn2)nc1 | HOP-92 | > 100 µM (inactive) |
| Nc1nc(=O)c2cc(NCc3ccc(C(=O)NC(CCC(=O)O)C(=O)O)cc3)ccc2[nH]1 (stereo unspecified) | HOP-92 | > 100 µM (inactive) |
| COc1cc(/C=N\NC(=O)C[N+](C)(C)C)cc(OC)c1OC | HOP-92 | > 10 µM (inactive) |
| CCN(CC)CCNc1ccc2nnn3c4ccc(C)cc4c(=O)c1c23 | HOP-92 | 6.55 µM (inactive) |
| C[C@]12CCC(=O)C=C1CC[C@@H]1[C@@H]2[C@@H](O)C[C@@]2(C)[C@H]1CC[C@]2(O)C(=O)COC(=O)CCC1CCCC1 [HYDROCORTISONE CYPIONATE] | HOP-92 | > 100 µM (inactive) |
| O=C(O)c1c2c(cc3c1CC1(Cc4ccccc4C1)C3)CCC2 | HOP-92 | 14.9 µM (inactive) |
| C1=N\c2ccc(cc2)/N=C\c2ccc(cc2)OCc2cccc(n2)COc2ccc/1cc2 | HOP-92 | > 100 µM (inactive) |
| COC(=O)/C(=N\N)C(C(=O)C(=O)Nc1nnc(S)[nH]1)c1nc2ccc([N+](=O)[O-])cc2nc1O (stereo unspecified) | HOP-92 | > 100 µM (inactive) |
| Cc1cc(C)c2c(c1)C/C(=C\c1ccccc1C(=O)O)C2=O | HOP-92 | 81.8 µM (inactive) |
| CC(C)NCC(O)c1ccc(OCc2ccccc2)c(OCc2ccccc2)c1-c1ccccc1 (stereo unspecified) | HOP-92 | 2.62 µM (inactive) |
| O=[As](O)(O)c1ccc(NCc2ccccc2)cc1 | HOP-92 | > 100 µM (inactive) |
| C1CNCCNCCN1 | HOP-92 | > 100 µM (inactive) |
